Measured ER-alpha MCF7 Sinf (%) of individual entries
Molecular target: estrogen receptor alpha (ESR1) (Homo sapiens, UniProt P03372)
Construct: MCF7 cells were trypsinized and washed twice; endogenous in cells; host or cells: MCF7 breast cancer cells
Sequence (P03372 1-595): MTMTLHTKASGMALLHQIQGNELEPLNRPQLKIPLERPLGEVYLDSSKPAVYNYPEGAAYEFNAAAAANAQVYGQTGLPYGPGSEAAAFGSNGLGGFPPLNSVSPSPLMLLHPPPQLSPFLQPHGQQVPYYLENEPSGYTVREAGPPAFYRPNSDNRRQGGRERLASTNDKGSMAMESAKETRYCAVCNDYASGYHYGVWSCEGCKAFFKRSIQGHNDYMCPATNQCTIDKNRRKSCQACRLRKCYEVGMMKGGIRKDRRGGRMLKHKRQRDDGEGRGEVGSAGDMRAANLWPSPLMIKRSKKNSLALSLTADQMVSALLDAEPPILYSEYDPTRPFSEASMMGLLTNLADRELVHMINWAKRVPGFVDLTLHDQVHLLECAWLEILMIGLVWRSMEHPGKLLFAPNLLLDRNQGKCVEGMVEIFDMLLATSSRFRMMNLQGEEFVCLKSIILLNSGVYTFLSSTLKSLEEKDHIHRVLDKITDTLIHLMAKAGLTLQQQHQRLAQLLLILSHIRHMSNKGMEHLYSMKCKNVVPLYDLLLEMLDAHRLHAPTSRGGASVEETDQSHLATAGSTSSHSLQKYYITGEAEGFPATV
Test: Breast Cancer Cell ERa High Content Fluorescence Imaging Assay (ER-alpha MCF7 Assay)
Format: cell-based
Conditions: MCF7 cells, 4 hours; plateau of maximal effect; DMSO = 0%, 5 nM Fulvestrant = 100% change in ESR1
Write it as a number; the unit % goes unstated.

Examples with their reported ER-alpha MCF7 Sinf (%) follow.
[
  {
    "compound": "CC1=C(/C=C/CO)C(c2ccc(OCCN3CC(CF)C3)cc2)Oc2ccc(O)cc21 (stereo not drawn)",
    "result.units": "%",
    "ER-alpha MCF7 Sinf (%)": 97.3
  },
  {
    "compound": "CC1=C(c2cncc(F)c2)C(c2ccc(OCCN3CC(CF)C3)cc2)Oc2ccc(O)cc21 (stereo not drawn)",
    "result.units": "%",
    "ER-alpha MCF7 Sinf (%)": 97.3
  },
  {
    "compound": "CC1=C(C2=CC(O)CC2)C(c2ccc(OCCN3CC(CF)C3)cc2)Oc2ccc(O)cc21 (stereo not drawn)",
    "result.units": "%",
    "ER-alpha MCF7 Sinf (%)": 95.4
  },
  {
    "compound": "CC1=C(c2cccnc2C)C(c2ccc(OCCN3CC(CF)C3)cc2)Oc2ccc(O)cc21 (stereo not drawn)",
    "result.units": "%",
    "ER-alpha MCF7 Sinf (%)": 98.5
  },
  {
    "compound": "CC1=C(C2CCOC2)C(c2ccc(OCCN3CC(CF)C3)cc2)Oc2ccc(O)cc21 (stereo not drawn)",
    "result.units": "%",
    "ER-alpha MCF7 Sinf (%)": 98.9
  }
]

Task item: Request the reported ER-alpha MCF7 Sinf (%) associated with CC1=C(CC(C)C)C(c2ccc(OCCN3CC(CF)C3)cc2)Oc2ccc(O)cc21 (stereo not drawn)
Reply: 93.9

Task item: Next record, please: CC(C)=CC1=C(C)c2cc(O)ccc2OC1c1ccc(OCCN2CC(CF)C2)cc1 (stereo not drawn)
Reply: 93.9

Task item: Next record, please: CC1=C(c2cncc(S(C)(=O)=O)c2)C(c2ccc(OCCN3CC(CF)C3)cc2)Oc2ccc(O)cc21 (stereo not drawn)
Reply: 98.9

Task item: Next record, please: CC(=O)N1CC=C(C2=C(C)c3cc(O)ccc3OC2c2ccc(OCCN3CC(CF)C3)cc2)C1 (stereo not drawn)
Reply: 93.7

Task item: Next record, please: CC1=C(c2cnccc2C)C(c2ccc(OCCN3CC(CF)C3)cc2)Oc2ccc(O)cc21 (stereo not drawn)
Reply: 97.5

Task item: Next record, please: CC1=C(C2=CCNC2)C(c2ccc(OCCN3CC(CF)C3)cc2)Oc2ccc(O)cc21 (stereo not drawn)
Reply: 90.0

Task item: Next record, please: CC1=C(c2cnc(N)nc2)C(c2ccc(OCCN3CC(CF)C3)cc2)Oc2ccc(O)cc21 (stereo not drawn)
Reply: 95.4

###

Measured Emax of individual entries
Target: ER-α (Homo sapiens)
Construct: MCF7 cells were trypsinized and washed twice; endogenous in cells; host or cells: MCF7 breast cancer cells
Assay: ER-α In Cell Western Assay
Type: cell-based
Conditions: MCF7 cells, 4 hours post compound addition, SP1 anti-ER antibody; read-out: ICW (SP1) max response
Write it as a number; the unit % goes unstated.

Examples with their reported Emax follow.
[
  {
    "compound": "CC1=C(c2ccc(O)c(F)c2)C(c2ccc(OC[C@H](C)N3CC[C@@H](C)C3)cn2)Oc2ccc(O)cc21 (stereo partly drawn) [Example 9]",
    "target.or.system": "ER-α (Homo sapiens)",
    "result.units": "%",
    "Emax": 88
  },
  {
    "compound": "CC1=C(c2cccc(O)c2)C(c2cnc(OCCN3CCCC3)cn2)Oc2ccc(O)cc21 (stereo not drawn) [Example 4]",
    "target.or.system": "ER-α (Homo sapiens)",
    "result.units": "%",
    "Emax": 70.1
  },
  {
    "compound": "CC1=C(c2ccc(O)cc2F)C(c2ccc(OC[C@H](C)N3CC[C@@H](C)C3)cn2)Oc2ccc(O)cc21 (stereo partly drawn) [Example 10]",
    "target.or.system": "ER-α (Homo sapiens)",
    "result.units": "%",
    "Emax": 83.4
  },
  {
    "compound": "C[C@]12CC[C@@H]3c4ccc(O)cc4C[C@@H](CCCCCCCCC[S+]([O-])CCCC(F)(F)C(F)(F)F)[C@H]3[C@@H]1CC[C@@H]2O (stereo partly drawn) [fulvestrant, reference compound]",
    "target.or.system": "ER-α (Homo sapiens)",
    "result.units": "%",
    "Emax": 93.6
  },
  {
    "compound": "CC1=C(c2cccc(O)c2)C(c2ccc(OCCN3CCCC3)cn2)Oc2ccc(O)cc21 (stereo not drawn) [Example 6]",
    "target.or.system": "ER-α (Homo sapiens)",
    "result.units": "%",
    "Emax": 69.9
  }
]

Task item: Short answer please: Emax, ER-α (Homo sapiens), entry CC1=C(c2ccc3[nH]ncc3c2)C(c2ccc(OC[C@H](C)N3CC[C@@H](C)C3)cc2)Oc2ccc(O)cc21 (stereo partly drawn) [Example 12]
Reply: 74.8

Task item: Next record, please: CC1=C(c2ccc(O)cc2)C(c2ccc(OC[C@H](C)N3CC[C@@H](C)C3)cn2)Oc2ccc(O)cc21 (stereo partly drawn) [Example 8]
Reply: 85.9

Task item: Next record, please: CC1=C(c2cccc(O)c2)C(c2ccc(OC[C@H](C)N3CC[C@@H](C)C3)cc2)Oc2ccc3[nH]ncc3c21 (stereo partly drawn) [Example 14]
Reply: 77.8

Task item: Next record, please: CC1=C(c2ccc3cn[nH]c3c2)C(c2ccc(OC[C@H](C)N3CC[C@@H](C)C3)cc2)Oc2ccc(O)cc21 (stereo partly drawn) [Example 11]
Reply: 74.1

###

Measured ER-alpha MCF7 Sinf (%) of individual entries
Target: estrogen receptor alpha (ESR1) (Homo sapiens)
Construct: MCF7 cells were trypsinized and washed twice; endogenous in cells; host or cells: MCF7 breast cancer cells
Experiment: Breast Cancer Cell ERa High Content Fluorescence Imaging Assay (ER-alpha MCF7 Assay)
Format: cell-based
Conditions: MCF7 cells, 4 hours; plateau of maximal effect; DMSO = 0%, 5 nM Fulvestrant = 100% change in ESR1

[
  {
    "compound": "CC1=C(C2=CCC(F)(F)CC2)C(c2ccc(OCCN3CC(CF)C3)cc2)Oc2ccc(O)cc21 (stereo not drawn)",
    "ER-alpha MCF7 Sinf (%)": "97.1%"
  },
  {
    "compound": "CC1=C(c2cncnc2)C(c2ccc(OCCN3CC(CF)C3)cc2)Oc2ccc(O)cc21 (stereo not drawn)",
    "ER-alpha MCF7 Sinf (%)": "90.3%"
  },
  {
    "compound": "CC1=C(c2cncc(C#N)c2)C(c2ccc(OCCN3CC(CF)C3)cc2)Oc2ccc(O)cc21 (stereo not drawn)",
    "ER-alpha MCF7 Sinf (%)": "91.8%"
  },
  {
    "compound": "CC1=C(c2ncccc2C)C(c2ccc(OCCN3CC(CF)C3)cc2)Oc2ccc(O)cc21 (stereo not drawn)",
    "ER-alpha MCF7 Sinf (%)": "96.4%"
  },
  {
    "compound": "CC1=C(c2cncc(C)c2)C(c2ccc(OCCN3CC(CF)C3)cc2)Oc2ccc(O)cc21 (stereo not drawn)",
    "ER-alpha MCF7 Sinf (%)": "99.2%"
  },
  {
    "compound": "CC1=C(c2cnn(C)c2)C(c2ccc(OCCN3CC(CF)C3)cc2)Oc2ccc(O)cc21 (stereo not drawn)",
    "ER-alpha MCF7 Sinf (%)": "95.2%"
  },
  {
    "compound": "CC1=C(C2CCC(O)C2)C(c2ccc(OCCN3CC(CF)C3)cc2)Oc2ccc(O)cc21 (stereo not drawn)",
    "ER-alpha MCF7 Sinf (%)": "98.3%"
  },
  {
    "compound": "CC1=C(C2=CCOC2)C(c2ccc(OCCN3CC(CF)C3)cc2)Oc2ccc(O)cc21 (stereo not drawn)",
    "ER-alpha MCF7 Sinf (%)": "97.9%"
  }
]

Task item: Request the reported ER-alpha MCF7 Sinf (%) associated with CC1=C(c2ncc(C#N)cc2C)C(c2ccc(OCCN3CC(CF)C3)cc2)Oc2ccc(O)cc21 (stereo not drawn)
Reply: 97.4%

Task item: Next record, please: CC1=C(c2cccc(O)c2)[C@H](c2cnn(CCCN3CC(CF)C3)c2)Oc2ccc(O)cc21
Reply: 94.7%

Task item: Next record, please: CNC(=O)N1CCC(C2=C(C)c3cc(O)ccc3OC2c2ccc(OCCN3CC(CF)C3)cc2)CC1 (stereo not drawn)
Reply: 85.9%

Task item: Next record, please: CC1=C(C2CCOCC2)C(c2ccc(OCCN3CC(CF)C3)cc2)Oc2ccc(O)cc21 (stereo not drawn)
Reply: 97.7%
